Attribution: patent EP4549424A1

protocol_summary: Liquid-liquid extraction from aqueous lithium-containing solution, ICP detection: sodium;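 further: sodium measured by inductively coupled plasma optical emission spectrometry in the diluted aqueous phase left after shaking with the organic phase and phase separation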
conditions: feed B7 (cLi 0.833, cNa 55.60, cK 5.37 g/L, pH 12.05), 26°C; organic phase and phase ratio per example
observed_property: extraction rate for sodium ions (%)
Answer in %, number only, no unit symbol.

// solved cases for extraction rate for sodium ions follow
molecule	observed_property	meas_value
CC(=O)c1cc(OCc2ccccc2)ccc1O [Example 32, 2-hydroxy-5-benzyloxyacetophenone]	extraction rate for sodium ions	7.8
CC(=O)c1cccc([N+](=O)[O-])c1O [Example 34, 2-hydroxy-3-nitrocetophenone]	extraction rate for sodium ions	8.17

Read the next record carefully.
Output measured extraction rate for sodium ions for this item: CC(=O)c1c(O)cccc1[N+](=O)[O-] [Example 36, 2-hydroxy-6-nitrocetophenone]
8.2
